Attribution: paper PMC9065009

- system: HutD (Vibrio cholerae)
- Sequence (Q9KL34 whole entry, looked up): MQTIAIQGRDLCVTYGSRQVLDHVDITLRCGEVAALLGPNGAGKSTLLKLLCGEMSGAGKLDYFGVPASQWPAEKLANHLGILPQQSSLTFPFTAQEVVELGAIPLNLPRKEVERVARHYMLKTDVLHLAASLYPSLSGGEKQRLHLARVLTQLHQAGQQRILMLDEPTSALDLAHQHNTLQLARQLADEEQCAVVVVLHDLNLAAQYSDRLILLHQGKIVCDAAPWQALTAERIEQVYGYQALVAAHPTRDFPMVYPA

| compound structure string | units text | Kd |
| --- | --- | --- |
| Nc1ncnc2c1ncn2[C@@H]1O[C@H](COP(=O)(O)OP(=O)(O)NP(=O)(O)O)[C@@H](O)[C@H]1O | µM | 94 |
